- studyTarget: NF-kB p65 (RelA) (UniProt Q04206 Q04206:1-551)
- Sequence (Q04206 whole entry, one chain of several): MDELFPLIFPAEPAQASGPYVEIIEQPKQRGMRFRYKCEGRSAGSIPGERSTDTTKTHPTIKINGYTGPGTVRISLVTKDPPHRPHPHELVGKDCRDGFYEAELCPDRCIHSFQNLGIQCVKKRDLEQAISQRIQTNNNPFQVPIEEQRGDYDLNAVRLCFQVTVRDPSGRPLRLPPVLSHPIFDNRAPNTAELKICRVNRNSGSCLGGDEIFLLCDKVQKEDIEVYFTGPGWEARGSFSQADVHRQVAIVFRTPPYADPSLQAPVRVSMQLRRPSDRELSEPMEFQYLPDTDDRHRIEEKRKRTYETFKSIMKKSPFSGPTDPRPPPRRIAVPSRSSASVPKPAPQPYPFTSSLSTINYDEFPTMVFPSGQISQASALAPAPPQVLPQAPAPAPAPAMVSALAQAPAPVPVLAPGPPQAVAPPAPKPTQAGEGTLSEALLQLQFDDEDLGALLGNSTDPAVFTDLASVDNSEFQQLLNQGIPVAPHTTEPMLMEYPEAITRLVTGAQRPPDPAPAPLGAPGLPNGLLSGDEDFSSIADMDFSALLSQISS
- experimentalProtocol: competition; primary screen 1.33
- measurementContext: protein: extract; tags: TPA and CI-stimulated Jurkat nuclear extract, Active Motif TransAM kit
endpointName: IC50

>>> obsvalue("SODN30 (dsDNA, PS all bonds, both strands) DNA 1: GGCTGGGATTTCCCGCGG DNA 2: CCGCGGGAAATCCCAGCC")
"1.87 nM"
